Provenance of the data: patent US9598463B2

- MEASUREMENT_DESCRIPTION: Qualitative solubility of test peptides in 0.5 N saline
- Format: physicochemical
- CONDITION_INFO: pH 6.5, 20° C. (table title)
solubility values, listed per item
RECORDED_ENDPOINT: solubility

1. Ac-GAQFSKTAAAGE-OH [Ac-peptide 239] :: > 50 mg/mL
2. Ac-GAQFSKAAAK-OH [Ac-peptide 247] :: > 100 mg/mL
3. Ac-AAQFSKTAAK-OH [Ac-peptide 242] :: > 100 mg/mL
4. Ac-GAQFAKTAAK-OH [Ac-peptide 244] :: > 120 mg/mL
5. Ac-GAQFSKTAA-OH [Ac-peptide 121] :: > 20 mg/mL
